# Test system: Pseudomonas syringae pv. syringae EPS94
# Assay type: cell-based
# condition details: 48 h
# Method: The following plant pathogenic bacterial strains were used: Erwinia amylovora PMV6076 (Institut National de la Recherche Agronomique, Angers, France), Pseudomonas syringae pv. syringae EPS94 (Institut de Tecnologia Agroalimentària, Universitat de Girona, Spain) and Xanthomonas axonopodis pv. vesicatoria 2133–2 (Instituto Valenciano de Investigaciones Agrarias, Valencia, Spain). All bacteria were stored in Luria Bertani (LB) broth supplemented with glycerol (20%) and maintained at -80°C. […]
Where a SMILES comes first, the peptide text is derived from it. Side-chain parts run from the residue outwards. [ ]: non-standard residue; d: D form. The star is where a group is joined. Pentanoyl(4-Me) = CC(C)CCC(=O)*; Lauroyl = CCCCCCCCCCCC(=O)*; Hexanoyl = CCCCCC(=O)*; Butyryl = CCCC(=O)*
Entries annotated with measured MIC Pss
parameter measured: MIC Pss

- molecule: "CCCC(=O)NCCCC[C@@H]1NC(=O)[C@H](CCC(N)=O)NC(=O)[C@H](CC(C)C)NC(=O)[C@H](CCCCN)NC(=O)[C@H](CCCCN)NC(=O)[C@@H](Cc2ccccc2)NC(=O)[C@H](CCCCN)NC(=O)[C@H](CCCCN)NC(=O)[C@H](CC(C)C)NC(=O)[C@H](CCCCN)NC1=O [BPC716, c(K(CO-C3H7)KLKKfKKLQ)] (cyclo(K(Butyryl)KLKK[dF]KKLQ))"
  parameter measured: "MIC Pss"
  result: "12.5 to 25 µM"
- molecule: "CCCC(=O)N[C@@H](CCCCN)C(=O)N[C@@H](CC(C)C)C(=O)NCCCC[C@H]1NC(=O)[C@H](CCCCN)NC(=O)[C@H](CC(C)C)NC(=O)[C@H](CCCCN)NC(=O)[C@H](CCCCN)NC(=O)[C@H](CCC(N)=O)NC(=O)[C@H](CC(C)C)NC(=O)[C@H](CCCCN)NC(=O)[C@H](CCCCN)NC(=O)[C@H](Cc2ccccc2)NC1=O [BPC724, c(KKLKk(LK-CO-C3H7)FKKLQ)] (cyclo(FKKLQKKLK[dK]([Leu-Lys-Butyryl])))"
  parameter measured: "MIC Pss"
  result: "12.5 to 25 µM"
- molecule: "CCCC(=O)NCCCC[C@H]1NC(=O)[C@H](CCC(N)=O)NC(=O)[C@H](CC(C)C)NC(=O)[C@H](CCCCN)NC(=O)[C@H](CCCCN)NC(=O)[C@H](Cc2ccccc2)NC(=O)[C@H](CCCCN)NC(=O)[C@H](CCCCN)NC(=O)[C@H](CC(C)C)NC(=O)[C@H](CCCCN)NC1=O [BPC706] (cyclo(FKKLQ[dK](Butyryl)KLKK))"
  parameter measured: "MIC Pss"
  result: "6.2 to 12.5 µM"
- molecule: "CCCC(=O)NCCCC[C@@H]1NC(=O)[C@H](CCCCN)NC(=O)[C@H](CC(C)C)NC(=O)[C@H](CCCCN)NC(=O)[C@H](CCCCN)NC(=O)[C@H](CCC(N)=O)NC(=O)[C@H](CC(C)C)NC(=O)[C@H](CCCCN)NC(=O)[C@H](CCCCN)NC(=O)[C@@H](Cc2ccccc2)NC1=O [BPC712, c(KKLKK(CO-C3H7)fKKLQ)] (cyclo(KKLKK(Butyryl)[dF]KKLQ))"
  parameter measured: "MIC Pss"
  result: "12.5 to 25 µM"
- molecule: "CCCC(=O)N[C@@H](CCCCN)C(=O)N[C@@H](CC(C)C)C(=O)NCCCC[C@@H]1NC(=O)[C@H](CCCCN)NC(=O)[C@H](CC(C)C)NC(=O)[C@H](CCCCN)NC(=O)[C@H](CCCCN)NC(=O)[C@H](CCC(N)=O)NC(=O)[C@H](CC(C)C)NC(=O)[C@H](CCCCN)NC(=O)[C@H](CCCCN)NC(=O)[C@H](Cc2c[nH]cn2)NC1=O [BPC728, c(KKLKK(LK-CO-C3H7)HKKLQ)] (cyclo(HKKLQKKLKK([Leu-Lys-Butyryl])))"
  parameter measured: "MIC Pss"
  result: "12.5 to 25 µM"
- molecule: "CCCCCC(=O)NCCCC[C@@H]1NC(=O)[C@H](CCCCN)NC(=O)[C@H](Cc2ccccc2)NC(=O)[C@H](CCCCN)NC(=O)[C@H](CCCCN)NC(=O)[C@H](CC(C)C)NC(=O)[C@H](CCCCN)NC(=O)[C@H](CCCCN)NC(=O)[C@H](CCC(N)=O)NC(=O)[C@H](CC(C)C)NC1=O [BPC582] (cyclo(FKK(Hexanoyl)LQKKLKK))"
  parameter measured: "MIC Pss"
  result: "6.2 to 12.5 µM"
- molecule: "CCCC(=O)NCCCC[C@@H]1NC(=O)[C@H](CCCCN)NC(=O)[C@H](CC(C)C)NC(=O)[C@H](CCCCN)NC(=O)[C@H](CCCCN)NC(=O)[C@H](CCC(N)=O)NC(=O)[C@H](CC(C)C)NC(=O)[C@H](CCCCN)NC(=O)[C@H](CCCCN)NC(=O)[C@H](Cc2c[nH]cn2)NC1=O [BPC718, c(KKLKK(CO-C3H7)HKKLQ)] (cyclo(HKKLQKKLKK(Butyryl)))"
  parameter measured: "MIC Pss"
  result: "12.5 to 25 µM"
- molecule: "CCCCCC(=O)NCCCC[C@H]1NC(=O)[C@H](CCCCN)NC(=O)[C@H](CC(C)C)NC(=O)[C@H](CCCCN)NC(=O)[C@H](CCCCN)NC(=O)[C@H](CCC(N)=O)NC(=O)[C@H](CC(C)C)NC(=O)[C@H](CCCCN)NC(=O)[C@H](CCCCN)NC(=O)[C@H](Cc2ccccc2)NC1=O [BPC628, c(KKLKk(CO-nC5H11)FKKLQ)] (cyclo(FKKLQKKLK[dK](Hexanoyl)))"
  parameter measured: "MIC Pss"
  result: "12.5 to 25 µM"
- molecule: "CCCCCC(=O)NCCCC[C@@H]1NC(=O)[C@H](CCCCN)NC(=O)[C@H](CC(C)C)NC(=O)[C@H](CCCCN)NC(=O)[C@H](CCCCN)NC(=O)[C@H](CCC(N)=O)NC(=O)[C@H](CC(C)C)NC(=O)[C@H](CCCCN)NC(=O)[C@H](CCCCN)NC(=O)[C@H](Cc2ccccc2)NC1=O [BPC528, c(KKLKK(CO-nC5H11)FKKLQ)] (cyclo(FKKLQKKLKK(Hexanoyl)))"
  parameter measured: "MIC Pss"
  result: "6.2 to 12.5 µM"
- molecule: "CC(C)CCC(=O)NCCCC[C@H]1NC(=O)[C@H](CCCCN)NC(=O)[C@H](CC(C)C)NC(=O)[C@H](CCCCN)NC(=O)[C@H](CCCCN)NC(=O)[C@H](CCC(N)=O)NC(=O)[C@H](CC(C)C)NC(=O)[C@H](CCCCN)NC(=O)[C@H](CCCCN)NC(=O)[C@@H](Cc2ccccc2)NC1=O [BPC634, c(KKLKk(CO-isoC5H11)fKKLQ)] (cyclo(KKLK[dK](Pentanoyl(4-Me))[dF]KKLQ))"
  parameter measured: "MIC Pss"
  result: "12.5 to 25 µM"
- molecule: "CCCCCCCCCCCC(=O)NCCCC[C@@H]1NC(=O)[C@H](CCCCN)NC(=O)[C@H](CC(C)C)NC(=O)[C@H](CCCCN)NC(=O)[C@H](CCCCN)NC(=O)[C@H](CCC(N)=O)NC(=O)[C@H](CC(C)C)NC(=O)[C@H](CCCCN)NC(=O)[C@H](CCCCN)NC(=O)[C@H](Cc2ccccc2)NC1=O [BPC530, c(KKLKK(CO-C11H23)FKKLQ)] (cyclo(FKKLQKKLKK(Lauroyl)))"
  parameter measured: "MIC Pss"
  result: "12.5 to 25 µM"
